Target: GCN2 (Homo sapiens, UniProt Q9P2K8)
Sequence (Q9P2K8 whole entry): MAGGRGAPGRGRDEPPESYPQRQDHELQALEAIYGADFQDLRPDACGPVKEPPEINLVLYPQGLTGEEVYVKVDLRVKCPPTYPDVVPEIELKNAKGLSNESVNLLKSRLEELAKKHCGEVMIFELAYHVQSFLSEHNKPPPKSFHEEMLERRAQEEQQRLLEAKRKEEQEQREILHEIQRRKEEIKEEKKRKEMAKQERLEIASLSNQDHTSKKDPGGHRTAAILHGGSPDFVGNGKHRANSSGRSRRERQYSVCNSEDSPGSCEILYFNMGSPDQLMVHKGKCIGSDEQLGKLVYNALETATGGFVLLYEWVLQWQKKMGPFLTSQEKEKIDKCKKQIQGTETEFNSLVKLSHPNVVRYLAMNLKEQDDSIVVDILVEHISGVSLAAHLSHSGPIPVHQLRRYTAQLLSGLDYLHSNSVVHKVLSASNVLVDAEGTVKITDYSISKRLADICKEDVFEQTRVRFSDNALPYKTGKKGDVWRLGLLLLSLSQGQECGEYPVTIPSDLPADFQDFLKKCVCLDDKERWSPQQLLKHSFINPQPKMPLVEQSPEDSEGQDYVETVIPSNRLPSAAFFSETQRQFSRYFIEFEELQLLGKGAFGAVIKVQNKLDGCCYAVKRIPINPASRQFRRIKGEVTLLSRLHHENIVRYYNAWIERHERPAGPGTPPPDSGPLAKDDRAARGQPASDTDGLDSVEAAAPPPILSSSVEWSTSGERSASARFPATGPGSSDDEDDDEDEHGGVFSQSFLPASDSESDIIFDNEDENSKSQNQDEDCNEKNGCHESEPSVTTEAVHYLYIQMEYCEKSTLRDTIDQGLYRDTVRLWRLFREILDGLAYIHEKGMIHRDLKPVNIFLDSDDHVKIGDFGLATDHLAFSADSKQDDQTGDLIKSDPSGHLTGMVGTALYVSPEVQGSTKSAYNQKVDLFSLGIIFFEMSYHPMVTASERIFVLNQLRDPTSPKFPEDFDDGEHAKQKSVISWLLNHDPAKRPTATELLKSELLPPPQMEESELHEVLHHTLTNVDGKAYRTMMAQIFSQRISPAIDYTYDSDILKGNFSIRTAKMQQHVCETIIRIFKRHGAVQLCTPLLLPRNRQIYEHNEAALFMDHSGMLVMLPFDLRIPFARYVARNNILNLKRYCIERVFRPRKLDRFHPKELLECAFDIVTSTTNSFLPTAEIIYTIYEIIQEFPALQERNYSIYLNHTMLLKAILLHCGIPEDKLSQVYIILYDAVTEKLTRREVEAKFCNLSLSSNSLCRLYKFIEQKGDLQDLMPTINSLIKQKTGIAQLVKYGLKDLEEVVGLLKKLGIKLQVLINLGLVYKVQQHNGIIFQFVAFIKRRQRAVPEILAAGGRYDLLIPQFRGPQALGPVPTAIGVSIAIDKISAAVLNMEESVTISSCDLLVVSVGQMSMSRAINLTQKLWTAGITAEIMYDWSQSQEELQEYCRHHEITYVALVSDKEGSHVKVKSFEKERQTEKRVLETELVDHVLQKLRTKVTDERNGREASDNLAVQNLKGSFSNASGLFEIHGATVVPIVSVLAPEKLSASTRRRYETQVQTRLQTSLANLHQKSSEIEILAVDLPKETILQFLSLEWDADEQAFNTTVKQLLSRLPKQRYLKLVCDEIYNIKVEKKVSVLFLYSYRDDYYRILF
Test: GCN2 enzymatic endpoint assay: phosphorylation of GFP-eIF2α measured by TR-FRET (Lanthascreen)
Format: biochemical
Conditions: tested as described in Example 77; compound and/or hydrochloride, dihydrochloride or trifluoroacetic acid salt; read-out: IC 50 Activity
metric: IC50

Worked examples follow.
> print(dat)
                                     smiles  metric         value
1  CNC(=O)[C@]1(C)CC[C@@H](Nc2ncc3c(Br)nn(-c4cc(C#N)cc(C5CNC5)c4)c3n2)C1    IC50  25 to 200 nM
2  CNC(=O)[C@@]1(CC(F)F)CC[C@@H](Nc2ncc3c(Br)nn(-c4ccc(-c5nnc(C)o5)cc4)c3n2)C1    IC50  25 to 200 nM
3  CCc1cc(-n2nc(Br)c3cnc(N[C@@H]4CC[C@@](C)(C(=O)NC)C4)nc32)ccc1-c1nnc(C)s1    IC50  25 to 200 nM

In the following, a different compound is considered.
Task item: Tell me its IC50 given `CNC(=O)[C@@]1(C)CC[C@@H](Nc2ncc3c(Br)nn(-c4ccc5nccnc5c4)c3n2)C1` as the entry.
Reply: 500 to 1000 nM

====

Biological target: GCN2 (Homo sapiens, UniProt Q9P2K8)
Assay: GCN2 enzymatic endpoint assay: phosphorylation of GFP-eIF2α measured by TR-FRET (Lanthascreen)
Assay type: biochemical
Details: tested as described in Example 77; compound and/or hydrochloride, dihydrochloride or trifluoroacetic acid salt; read-out: IC 50 Activity
Kindly state IC50 for each of the entries shown.

Would you mind giving IC50 for every molecule in the list below?
1. CNC(=O)[C@]1(C)CC[C@@H](Nc2ncc3c(Br)nn(-c4cc(C#N)c5nc(C)ccc5c4)c3n2)C1
2. CNC(=O)[C@]1(C)CC[C@@H](Nc2ncc3c(Br)nn(-c4cc(/C=C/P(C)(C)=O)c5ncccc5c4)c3n2)C1
3. CNC(=O)[C@]1(C)CC[C@@H](Nc2ncc3c(Br)nn(-c4cc(CN5C(=O)CCC5=O)c5ncccc5c4)c3n2)C1

Reply:
1. < 25 nM
2. 25 to 200 nM
3. 25 to 200 nM

====

Target: GCN2 (Homo sapiens, UniProt Q9P2K8)
Experiment: GCN2 enzymatic endpoint assay: phosphorylation of GFP-eIF2α measured by TR-FRET (Lanthascreen)
Type: biochemical
Settings: tested as described in Example 77; compound and/or hydrochloride, dihydrochloride or trifluoroacetic acid salt; read-out: IC 50 Activity
Procedure: The Enzymatic assay was run as an endpoint assay to quantify the activity of the serine/threonine GCN2 kinase by way of measuring phosphorylation of its natural substrate, eiF2α. The enzymatic reaction was initiated by incubating with 2 μM ATP and 80 nM of GFP labeled eiF2a substrate at room temperature and then stopped after 90 minutes with EDTA. The amount of phosphorylated eIF2α is determined by TR-FRET (Lanthascreen). […]
Kindly state IC50 for each of the entries shown.

Worked examples follow.
> print(dat)
                                     smiles            value
1  COC1(C)CN(C(=O)[C@]2(C)CC[C@@H](Nc3ncc4c(Br)nn(-c5cc(F)c6ncccc6c5)c4n3)C2)C1       < 0.025 µM
2  O[C@H]1CCC[C@@H]1Nc1ncc2c(Br)nn(-c3cc(F)c4ncccc4c3)c2n1  0.025 to 0.2 µM
3  CNC(=O)[C@]1(C)CC[C@@H](Nc2ncc3c(Br)nn(-c4cc(CNCCOC)c5ncccc5c4)c3n2)C1  0.025 to 0.2 µM

In the following, a different molecule is considered.
Task item: Tell me its IC50 given `Cc1ccc2cc(-n3nc(Br)c4cnc(N[C@@H]5CC[C@@H](P(C)(C)=O)C5)nc43)cc(CCO)c2n1` as the entry.
Reply: 0.025 to 0.2 µM

====

Kindly state pIC50 for each of the entries shown.
Molecular target: GCN2 (Homo sapiens, UniProt Q9P2K8)
Experiment: GCN2 enzymatic endpoint assay: phosphorylation of GFP-eIF2α measured by TR-FRET (Lanthascreen)
Assay type: biochemical
Settings: tested as described in Example 77; compound and/or hydrochloride, dihydrochloride or trifluoroacetic acid salt; read-out: IC 50 Activity
pIC50: −log10 of the molar value.

Worked examples follow.
> print(dat)
                                   compound         value
1  O=C([C@@H]1CC[C@@H](Nc2ncc3c(Br)nn(-c4ccc5ncccc5c4)c3n2)C1)N1CCS(=O)(=O)CC1  6.70 to 7.60
2  CNC(=O)[C@]1(C)CC[C@@H](Nc2ncc3c(Br)nn(-c4ccc(-c5nnc(C(C)N)s5)cc4)c3n2)C1 (some centres unmarked)  6.70 to 7.60
3  CNC(=O)[C@]1(C)CC[C@@H](Nc2ncc3c(Br)nn(-c4cccc(Oc5ccncc5)c4)c3n2)C1  6.70 to 7.60

Would you mind giving pIC50 for every compound in the list below?
1. CNC(=O)[C@]1(C)CC[C@@H](Nc2ncc3c(Br)nn(-c4ccc(-c5nnc(C)s5)c(CC(O)C(F)(F)F)c4)c3n2)C1 (some centres unmarked)
2. CC(C)NC(=O)[C@@H]1CC[C@@H](Nc2ncc3c(Br)nn(-c4cc(C#N)c5ncccc5c4)c3n2)C1

Reply:
["6.70 to 7.60", "6.70 to 7.60"]

Would you mind giving pIC50 for every compound in the list below?
1. O=C([C@@H]1CC[C@@H](Nc2ncc3c(Br)nn(-c4cc(F)c5ncccc5c4)c3n2)C1)N1CCN2C(=O)CC[C@@H]2C1
2. COC[C@H](C)NC(=O)[C@@H]1CCC[C@@H](Nc2ncc3c(Br)nn(-c4ccc5ncccc5c4)c3n2)C1

Reply:
["> 7.60", "6.00 to 6.30"]

Task item: # assay system GCN2 (Homo sapiens, UniProt Q9P2K8): give pIC50 of `CNC(=O)[C@]1(C)CC[C@@H](Nc2ncc3c(Br)nn(-c4ccc(C#N)c(CCN)c4)c3n2)C1`
Reply: 6.70 to 7.60

====

Molecular target: GCN2 (Homo sapiens, UniProt Q9P2K8)
Test: GCN2 enzymatic endpoint assay: phosphorylation of GFP-eIF2α measured by TR-FRET (Lanthascreen)
Type: biochemical
Conditions: tested as described in Example 77; compound and/or hydrochloride, dihydrochloride or trifluoroacetic acid salt; read-out: IC 50 Activity
pIC50: −log10 of the molar value.
metric: pIC50

> print(dat)
                                   compound  metric         value
1  CNC(=O)[C@]1(C)CC[C@@H](Nc2ncc3c(Br)nn(-c4ccc5nc(CNCCC#N)ccc5c4)c3n2)C1   pIC50  6.70 to 7.60
2  CNC(=O)[C@@]1(CO)CC[C@@H](Nc2ncc3c(Br)nn(-c4ccc(-c5nnc(C)s5)cc4)c3n2)C1   pIC50  6.70 to 7.60
3  O=C([C@@H]1CC[C@@H](Nc2ncc3c(Br)nn(-c4cc(F)c5ncccc5c4)c3n2)C1)N1CCC(O)(C(=O)O)C1 (stereo partly shown)   pIC50  6.00 to 6.30

In the following, a different compound is considered.
Task item: # assay system GCN2 (Homo sapiens, UniProt Q9P2K8): give pIC50 of `CS(=O)(=O)N1CC[C@@H](Nc2ncc3c(Br)nn(-c4ccc5ncccc5c4)c3n2)C1`
Reply: 6.30 to 6.70

====

Molecular target: GCN2 (Homo sapiens)
Test: GCN2 enzymatic endpoint assay: phosphorylation of GFP-eIF2α measured by TR-FRET (Lanthascreen)
Type: biochemical
Conditions: tested as described in Example 77; compound and/or hydrochloride, dihydrochloride or trifluoroacetic acid salt; read-out: IC 50 Activity
metric: IC50

> print(dat)
                                     smiles          test.system  metric         value
1  CNC(=O)[C@]1(C)CC[C@@H](Nc2ncc3c(Br)nn(-c4cc(F)cc(C(N)=O)c4)c3n2)C1  GCN2 (Homo sapiens)    IC50  25 to 200 nM
2  C[C@]1(C(=O)NCCO)CC[C@@H](Nc2ncc3c(Br)nn(-c4cc(F)c5ncccc5c4)c3n2)C1  GCN2 (Homo sapiens)    IC50  25 to 200 nM
3  CNC(=O)[C@@H]1CC[C@@H](Nc2ncc3c(Br)nn(-c4cc(C#N)c5c(c4)CCO5)c3n2)C1  GCN2 (Homo sapiens)    IC50  25 to 200 nM

In the following, a different molecule is considered.
Task item: Tell me its IC50 given `O=C(NCC(F)(F)CO)[C@@H]1CC[C@@H](Nc2ncc3c(Br)nn(-c4cc(F)c5ncccc5c4)c3n2)C1` as the entry.
Reply: 25 to 200 nM

====

Target: GCN2 (Homo sapiens, UniProt Q9P2K8)
Assay: GCN2 enzymatic endpoint assay: phosphorylation of GFP-eIF2α measured by TR-FRET (Lanthascreen)
Assay type: biochemical
Conditions: tested as described in Example 77; compound and/or hydrochloride, dihydrochloride or trifluoroacetic acid salt; read-out: IC 50 Activity
metric: IC50

Worked examples follow.
> print(dat)
                                   compound           value
1  COCCNC(=O)[C@@H]1CC[C@@H](Nc2ncc3c(Br)nn(-c4cc(C(F)(F)F)c5ncccc5c4)c3n2)C1   200 to 500 nM
2  COCCNC(=O)[C@@H]1CC[C@@H](Nc2ncc3c(Br)nn(-c4cncc(OC)c4)c3n2)C1  500 to 1000 nM
3  CNC(=O)[C@]1(C)CC[C@@H](Nc2ncc3c(Br)nn(-c4cc(C#N)cc(CO)c4)c3n2)C1    25 to 200 nM

Would you mind giving IC50 for every compound in the list below?
1. CC1(C(=O)NCC(F)(F)F)CC[C@@H](Nc2ncc3c(Br)nn(-c4cc(F)c5ncccc5c4)c3n2)C1 (stereo partly shown)
2. CNC(=O)[C@@H]1CC[C@@H](Nc2ncc3c(Br)nn(-c4ccc5c(C)nn(C)c5c4)c3n2)C1
3. CN1CN(C(=O)[C@@]2(C)CC[C@@H](Nc3ncc4c(Br)nn(-c5cc(F)c6ncccc6c5)c4n3)C2)CC1=O
4. CNC(=O)[C@]1(C)CC[C@@H](Nc2ncc3c(Br)nn(-c4cc(F)cc(CCO)c4)c3n2)C1
5. CNC(=O)[C@]1(C)CC[C@@H](Nc2ncc3c(Br)nn(-c4ccc(-c5cncn5C)cc4)c3n2)C1
6. CNC(=O)[C@]1(C)CCC(Nc2ncc3c(Br)nn(-c4ccc5nn(CCN)cc5c4)c3n2)C1 (stereo partly shown)
7. O=C(N[C@H]1CCOC1)[C@@H]1CC[C@@H](Nc2ncc3c(Br)nn(-c4ccc5ncccc5c4)c3n2)C1

Reply:
["25 to 200 nM", "25 to 200 nM", "25 to 200 nM", "< 25 nM", "25 to 200 nM", "25 to 200 nM", "25 to 200 nM"]
